- study-system: Amine oxidase [flavin-containing] B (Homo sapiens)
- Sequence (P27338 whole entry): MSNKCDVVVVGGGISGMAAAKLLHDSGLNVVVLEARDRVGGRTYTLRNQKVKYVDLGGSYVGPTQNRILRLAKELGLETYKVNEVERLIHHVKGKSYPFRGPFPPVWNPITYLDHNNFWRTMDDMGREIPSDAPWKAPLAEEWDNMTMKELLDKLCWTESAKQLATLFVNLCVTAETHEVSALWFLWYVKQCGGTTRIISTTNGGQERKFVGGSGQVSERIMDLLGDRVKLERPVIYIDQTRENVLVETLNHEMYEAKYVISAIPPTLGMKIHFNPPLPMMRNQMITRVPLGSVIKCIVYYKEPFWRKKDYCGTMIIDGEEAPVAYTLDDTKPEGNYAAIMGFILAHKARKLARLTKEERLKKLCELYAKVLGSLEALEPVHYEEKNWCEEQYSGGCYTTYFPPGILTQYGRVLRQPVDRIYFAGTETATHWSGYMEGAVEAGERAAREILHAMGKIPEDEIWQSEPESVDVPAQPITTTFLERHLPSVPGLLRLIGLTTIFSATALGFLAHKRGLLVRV
- method-notes: Inhibition of human recombinant MAO-B expressed in baculovirus-infected BTI cells using kynuramine as substrate incubated for 30 mins by fluorescence based analysis
readout-name: IC50 (µM)

>  <record-smiles>
CN(C)C(=O)Oc1ccccc1C(=O)/C=C/c1ccc(F)cc1

>  <readout-name>
IC50

>  <unit-symbol>
µM

>  <value>
2.7

$$$$
>  <record-smiles>
O=C(/C=C/c1cccc(O)c1)c1ccccc1O

>  <readout-name>
IC50

>  <unit-symbol>
µM

>  <value>
1.7

$$$$
>  <record-smiles>
COc1ccc2cc(/C=C/C(=O)c3ccccc3O)ccc2c1

>  <readout-name>
IC50

>  <unit-symbol>
µM

>  <value>
78.4

$$$$
>  <record-smiles>
COc1ccccc1/C=C/C(=O)c1ccccc1O

>  <readout-name>
IC50

>  <unit-symbol>
µM

>  <value>
5.9

$$$$
>  <record-smiles>
O=C(/C=C/c1cc2ccccc2c2ccccc12)c1ccccc1O

>  <readout-name>
IC50

>  <unit-symbol>
µM

>  <value>
76.8

$$$$
>  <record-smiles>
O=C(/C=C/c1c(F)cccc1Br)c1ccccc1O

>  <readout-name>
IC50

>  <unit-symbol>
µM

>  <value>
4.7

$$$$

---

- method-notes: Cytotoxicity against mouse BV-2 cells assessed as cell viability at 30 uM by CCK8 assay
- Format: toxicity, cell-based
- settings: BV-2 cells, read-out: Activity
readout-name: viability at 30 µM (%)

>  <record-smiles>
COc1ccc(/C=C/C(=O)c2ccccc2O)cc1

>  <readout-name>
viability at 30 µM

>  <value>
78.9

$$$$
>  <record-smiles>
O=C(/C=C/c1ccc(F)cc1)c1ccccc1O

>  <readout-name>
viability at 30 µM

>  <value>
80.1

$$$$
>  <record-smiles>
O=C(/C=C/c1ccc(O)cc1)c1ccccc1O

>  <readout-name>
viability at 30 µM

>  <value>
71.5

$$$$

---

- study-system: Amine oxidase [flavin-containing] A (Homo sapiens)
- Sequence (P21397 whole entry): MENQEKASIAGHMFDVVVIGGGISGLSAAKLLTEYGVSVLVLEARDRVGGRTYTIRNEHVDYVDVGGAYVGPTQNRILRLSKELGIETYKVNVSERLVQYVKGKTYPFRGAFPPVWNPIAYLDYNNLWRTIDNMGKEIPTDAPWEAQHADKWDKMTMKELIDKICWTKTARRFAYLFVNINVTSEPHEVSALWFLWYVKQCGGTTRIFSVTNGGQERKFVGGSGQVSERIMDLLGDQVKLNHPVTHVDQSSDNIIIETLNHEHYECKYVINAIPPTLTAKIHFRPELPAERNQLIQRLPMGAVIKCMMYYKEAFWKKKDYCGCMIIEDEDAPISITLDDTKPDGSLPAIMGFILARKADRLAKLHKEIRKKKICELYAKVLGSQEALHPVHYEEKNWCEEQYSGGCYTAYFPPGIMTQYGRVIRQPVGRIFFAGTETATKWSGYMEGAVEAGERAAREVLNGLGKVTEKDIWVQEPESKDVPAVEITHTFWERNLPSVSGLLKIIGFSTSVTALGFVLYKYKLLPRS
- method-notes: Inhibition of human recombinant MAO-A expressed in baculovirus-infected BTI cells using kynuramine as substrate incubated for 30 mins by fluorescence based analysis
Please assign Not fulfilled whenever IC50 is at or above 50 µM, and Fulfilled whenever it is below.

>  <record-smiles>
COc1cccc(/C=C/C(=O)c2ccccc2O)c1

>  <study-system>
Amine oxidase [flavin-containing] A (Homo sapiens)

>  <qualitative-label>
Fulfilled

$$$$
>  <record-smiles>
CCN(CC)C(=O)Oc1ccccc1C(=O)/C=C/c1ccc(F)cc1

>  <study-system>
Amine oxidase [flavin-containing] A (Homo sapiens)

>  <qualitative-label>
Not fulfilled

$$$$
>  <record-smiles>
O=C(/C=C/c1ccc(Br)cc1OC(F)(F)F)c1ccccc1O

>  <study-system>
Amine oxidase [flavin-containing] A (Homo sapiens)

>  <qualitative-label>
Not fulfilled

$$$$
>  <record-smiles>
O=C(/C=C/c1ccc(F)cc1)c1ccccc1O

>  <study-system>
Amine oxidase [flavin-containing] A (Homo sapiens)

>  <qualitative-label>
Fulfilled

$$$$
>  <record-smiles>
COc1ccc(/C=C/C(=O)c2ccccc2O)cc1

>  <study-system>
Amine oxidase [flavin-containing] A (Homo sapiens)

>  <qualitative-label>
Not fulfilled

$$$$

---

- Tested on: PC-12
- method-notes: Neuroprotective activity against Amyloid beta(25 to 35)-induced cell injury in rat PC12 cells assessed as cell viability at 10 uM pretreated for 2 hrs followed by incubation with Abeta(25 to 35) for 24 hrs by CCK-8 assay (reference value: 41 to 58.6%)
- Format: functional
- settings: time 26 hrs, read-out: Activity
readout-name: viability at 10 µM (%)

>  <record-smiles>
O=C(/C=C/c1ccc(F)cc1)c1ccccc1O

>  <unit-symbol>
%

>  <value>
89.9

$$$$
>  <record-smiles>
COc1cc(/C=C/C(=O)CC(=O)/C=C/c2ccc(O)c(OC)c2)ccc1O

>  <unit-symbol>
%

>  <value>
76.3

$$$$
>  <record-smiles>
CCN(C)C(=O)Oc1ccccc1C(=O)/C=C/c1ccc(F)cc1

>  <unit-symbol>
%

>  <value>
75

$$$$
>  <record-smiles>
O=C(/C=C/c1ccc(O)cc1)c1ccccc1O

>  <unit-symbol>
%

>  <value>
91

$$$$

---

// remaining at 8 h, 1 mg/ml lookup, one value per entry
- method-notes: Stability of the compound in artificial gastric juice assessed as parent compound remaining at 1 mg/ml measured after 8 hrs by UPLC-MS/MS analysis
- Assay type: ADME
- settings: read-out: Stability
readout-name: remaining at 8 h, 1 mg/ml (%)

>  <record-smiles>
CCN(C)C(=O)Oc1ccccc1C(=O)/C=C/c1ccc(F)cc1

>  <value>
97.3

$$$$
>  <record-smiles>
O=C(/C=C/c1ccc(F)cc1)c1ccccc1O

>  <value>
99

$$$$

---

// remaining at 8 h, 1 mg/ml lookup, one value per entry
- method-notes: Stability of the compound in artificial intestinal juice assessed as parent compound remaining at 1 mg/ml measured after 8 hrs by UPLC-MS/MS analysis
- Type: ADME
- settings: read-out: Stability
readout-name: remaining at 8 h, 1 mg/ml (%)

>  <record-smiles>
CCN(C)C(=O)Oc1ccccc1C(=O)/C=C/c1ccc(F)cc1

>  <readout-name>
remaining at 8 h, 1 mg/ml

>  <value>
104

$$$$
>  <record-smiles>
O=C(/C=C/c1ccc(F)cc1)c1ccccc1O

>  <readout-name>
remaining at 8 h, 1 mg/ml

>  <value>
96.5

$$$$

---

- method-notes: Stability of the compound in blank intestinal juice assessed as parent compound remaining at 1 mg/ml measured after 8 hrs by UPLC-MS/MS analysis
- Format: ADME
- settings: read-out: Stability
// remaining at 8 h, 1 mg/ml lookup, one value per entry

>  <record-smiles>
CCN(C)C(=O)Oc1ccccc1C(=O)/C=C/c1ccc(F)cc1

>  <remaining at 8 h, 1 mg/ml (%)>
98.5

$$$$
>  <record-smiles>
O=C(/C=C/c1ccc(F)cc1)c1ccccc1O

>  <remaining at 8 h, 1 mg/ml (%)>
96

$$$$

---

// IC50 lookup, one value per entry
- study-system: Amine oxidase [flavin-containing] A (Homo sapiens)
- method-notes: Inhibition of human recombinant MAO-A expressed in baculovirus-infected BTI cells using kynuramine as substrate incubated for 30 mins by fluorescence based analysis
readout-name: IC50

>  <record-smiles>
O=C(/C=C/c1ccc(Cl)cc1)c1ccccc1O

>  <readout-name>
IC50

>  <value>
78.8 µM

$$$$
>  <record-smiles>
CN(C)C(=O)Oc1ccccc1C(=O)/C=C/c1ccc(F)cc1

>  <readout-name>
IC50

>  <value>
31.5 µM

$$$$
>  <record-smiles>
O=C(/C=C/c1ccc(O)cc1)c1ccccc1O

>  <readout-name>
IC50

>  <value>
66.1 µM

$$$$
>  <record-smiles>
CCN(C)C(=O)Oc1ccccc1C(=O)/C=C/c1ccc(F)cc1

>  <readout-name>
IC50

>  <value>
38.2 µM

$$$$

---

- method-notes: Stability of the compound in rat liver microsomes assessed as parent compound remaining at 10 ug/ml measured after 60 mins by UPLC-MS/MS analysis
- Format: ADME, Microsome
- settings: at 10 µg/mL, read-out: Stability
readout-name: remaining at 1 h, 10 ug/ml

>  <record-smiles>
CCN(C)C(=O)Oc1ccccc1C(=O)/C=C/c1ccc(F)cc1

>  <value>
96.2%

$$$$
>  <record-smiles>
O=C(/C=C/c1ccc(F)cc1)c1ccccc1O

>  <value>
97.2%

$$$$

---

What follows is a collection of pIC50 values obtained with Acetylcholinesterase (Electrophorus electricus, UniProt O42275).
Sequence (O42275 whole entry): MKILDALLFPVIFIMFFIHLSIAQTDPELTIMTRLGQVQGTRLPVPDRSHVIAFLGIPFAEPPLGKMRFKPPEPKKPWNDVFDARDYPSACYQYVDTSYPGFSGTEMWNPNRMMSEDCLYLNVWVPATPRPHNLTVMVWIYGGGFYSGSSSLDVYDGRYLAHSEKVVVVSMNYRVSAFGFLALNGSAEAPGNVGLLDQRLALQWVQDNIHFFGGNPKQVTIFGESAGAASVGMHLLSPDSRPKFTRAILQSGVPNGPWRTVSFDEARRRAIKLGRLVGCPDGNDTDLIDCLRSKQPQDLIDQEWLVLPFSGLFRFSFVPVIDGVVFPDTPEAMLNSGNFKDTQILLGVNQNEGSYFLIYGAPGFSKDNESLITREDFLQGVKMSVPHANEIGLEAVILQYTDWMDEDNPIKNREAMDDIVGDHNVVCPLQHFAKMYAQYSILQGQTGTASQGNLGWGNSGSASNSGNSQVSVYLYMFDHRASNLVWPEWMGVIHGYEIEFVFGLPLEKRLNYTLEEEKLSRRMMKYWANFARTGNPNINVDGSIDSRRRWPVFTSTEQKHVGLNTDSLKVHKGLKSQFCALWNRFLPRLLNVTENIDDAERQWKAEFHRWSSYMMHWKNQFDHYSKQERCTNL
pIC50: −log10 of the molar value.

>  <record-smiles>
CN(C)C(=O)Oc1ccccc1C(=O)/C=C/c1ccc(F)cc1

>  <pIC50>
5.06

$$$$
>  <record-smiles>
CCN(CC)C(=O)Oc1ccccc1C(=O)/C=C/c1ccc(F)cc1

>  <pIC50>
4.95

$$$$
>  <record-smiles>
CCN(C)C(=O)Oc1ccccc1C(=O)/C=C/c1ccc(F)cc1

>  <pIC50>
5.28

$$$$
>  <record-smiles>
O=C(/C=C/c1ccc(F)cc1)c1ccccc1O

>  <pIC50>
4.59

$$$$

All figures here come from ChEMBL document CHEMBL5346920.
